Ref: ChEMBL document CHEMBL2407079

assay: Ratio of drug uptake in ileum to blood of mouse at 3 mg/kg, po at 2 to 25 hrs; type: ADME, organism-based; design: dose 3 mg/kg, route oral
measured_attribute: Kp

Quick one: Kp for O=C(O)[C@H]1CC[C@@H](Oc2ccc(-c3ccc(-c4nc5ccccc5[nH]4)cn3)cn2)CC1 ? > 30

---

assay: Bioavailability in rhesus monkey at 1 mg/kg, iv; format: ADME, organism-based, Macaca mulatta; details: in vivo
measured_attribute: bioavailability (%)
// note: answer is a bare numeric in %

Quick one: bioavailability for O=C(O)[C@H]1CC[C@@H](Oc2ccc(-c3ccc(-c4nc5ccc(F)cc5[nH]4)cn3)cn2)CC1 ? 3
